- System: Coxsackie B3 HA 201933
- protocol conditions: read-out: 50% Effective concentration EC50; Coxsackie B3 HA 201933, Vero 76, CPE
readout kind: pEC50
The quantity pEC50 is defined as the negative base-10 logarithm of the molar concentration.

input: Item Cc1cc(-c2noc(C(F)(F)F)n2)ccc1OCCCc1cc(C(=O)N(C)C)no1 with Coxsackie B3 HA 201933 - pEC50?
output: 6.00

* * *

- System: Vero 76
- protocol conditions: read-out: 50% Cytotoxic concentration CC50; Vero 76, line of EV-71
readout kind: CC50 (µM)
Form entry: value (µM) — number only.

input: State the recorded CC50 for this entry: Cc1cc(-c2noc(C(F)(F)F)n2)ccc1OCCCc1cc(C(=O)N(C)C)no1
output: 8.25
